molecular target: T1, recombinant human IL-13 (human, UniProt P35225 35-146); test: SPR
T1 construct: also called rh-IL-13; hIL-13
T1 sequence (P35225 35-146 limits assumed): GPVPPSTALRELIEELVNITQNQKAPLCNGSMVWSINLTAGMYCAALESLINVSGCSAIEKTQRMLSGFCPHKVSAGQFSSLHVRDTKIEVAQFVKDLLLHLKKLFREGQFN
Hi there, I'd appreciate the recorded kon for every entry that follows.
Your answer should be a plain number; it is taken to be in M⁻¹ s⁻¹.

Value of kon reported for the binder BDG38.075 (antibody, V domains shown, IgG1) VH: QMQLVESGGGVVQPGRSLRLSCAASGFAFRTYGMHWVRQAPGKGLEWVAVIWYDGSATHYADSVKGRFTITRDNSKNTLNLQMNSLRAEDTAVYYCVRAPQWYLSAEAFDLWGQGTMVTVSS VL: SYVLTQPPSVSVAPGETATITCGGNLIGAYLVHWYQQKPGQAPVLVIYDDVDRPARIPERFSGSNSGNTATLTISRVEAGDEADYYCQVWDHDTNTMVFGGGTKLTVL is 1.72e+07

The binder listed as BDG33.023 (antibody, V domains shown, standard IgG; also called BGD33.023; BDG33.0023) VH: QMQLVESGGGVVQPGRSLRLSCAASGFAFRTYGMHWVRQAPGKGLEWVAVIWYDGSNTHYADSVKGRFTITRDNSKNTLNLQMNSLRAEDTAVYYCARAPQWYLSAEAFDLWGQGTMVTVSS VL: SYVLTQPPSVSVAPGQTARITCGGNLIGSKLVHWYQQKPGQAPVLVVYDDSDRPSRIPERFSGSNSGNTATLTISRVEAGDEADYYCQVWDHSSDHVVFGGGTKLTVL shows kon equal to 1.52e+06

Recorded kon (binder BDG38.082 (antibody, V domains shown, IgG1) VH: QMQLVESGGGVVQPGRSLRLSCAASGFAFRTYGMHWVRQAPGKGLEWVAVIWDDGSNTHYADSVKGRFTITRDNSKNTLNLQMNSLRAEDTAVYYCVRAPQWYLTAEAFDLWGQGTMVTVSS VL: SYVLTQPPSVSVAPGETATITCGGNMIGGYLVHWYQQKPGQAPVLVIYDDVDRPDRIPERFSGSNSGNTATLTISRVEAGDEADYYCQVWDHDTNQVVFGGGTKLTVL ): 8.41e+06

response.value for BDG38.083 (antibody, V domains shown, IgG1) VH: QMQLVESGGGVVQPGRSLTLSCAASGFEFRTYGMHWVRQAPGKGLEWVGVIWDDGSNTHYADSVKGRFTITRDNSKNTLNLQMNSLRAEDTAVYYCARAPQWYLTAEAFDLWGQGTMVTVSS VL: SYILTQPPSVSVAPGQTATITCGGNLIGAKLVHWYQQKPGQAPVLVIYDDSDRPSRIPERFSGSNIGNTATLTISDVEEGDEADYYCQVWDYSSDTMVFGGGTKLTVL (field: kon) = 7.09e+06

Sample BDG38.081 (antibody, V domains shown, IgG1) VH: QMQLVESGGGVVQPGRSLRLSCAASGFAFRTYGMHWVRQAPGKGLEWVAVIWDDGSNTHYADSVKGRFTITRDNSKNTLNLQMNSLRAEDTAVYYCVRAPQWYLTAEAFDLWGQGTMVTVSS VL: SYVLTQPPSVSVAPGQTARITCGGNMIGAYLVHWYQQKPGQAPLLVIYDDVDRPDRIPERFSGSNSGNTATLTISRVEAGDEADYYCQVWDHNTQQMVFGGGTKLTVL ; kon observed: 1.71e+07
